# Experimental Target: T1, hTfR1 (recombinant, construct not specified) (human, UniProt P02786 89-760, limits assumed)
# T1 construct: also called biotinylated hTfR1
# T1 sequence (P02786 89-760 limits assumed): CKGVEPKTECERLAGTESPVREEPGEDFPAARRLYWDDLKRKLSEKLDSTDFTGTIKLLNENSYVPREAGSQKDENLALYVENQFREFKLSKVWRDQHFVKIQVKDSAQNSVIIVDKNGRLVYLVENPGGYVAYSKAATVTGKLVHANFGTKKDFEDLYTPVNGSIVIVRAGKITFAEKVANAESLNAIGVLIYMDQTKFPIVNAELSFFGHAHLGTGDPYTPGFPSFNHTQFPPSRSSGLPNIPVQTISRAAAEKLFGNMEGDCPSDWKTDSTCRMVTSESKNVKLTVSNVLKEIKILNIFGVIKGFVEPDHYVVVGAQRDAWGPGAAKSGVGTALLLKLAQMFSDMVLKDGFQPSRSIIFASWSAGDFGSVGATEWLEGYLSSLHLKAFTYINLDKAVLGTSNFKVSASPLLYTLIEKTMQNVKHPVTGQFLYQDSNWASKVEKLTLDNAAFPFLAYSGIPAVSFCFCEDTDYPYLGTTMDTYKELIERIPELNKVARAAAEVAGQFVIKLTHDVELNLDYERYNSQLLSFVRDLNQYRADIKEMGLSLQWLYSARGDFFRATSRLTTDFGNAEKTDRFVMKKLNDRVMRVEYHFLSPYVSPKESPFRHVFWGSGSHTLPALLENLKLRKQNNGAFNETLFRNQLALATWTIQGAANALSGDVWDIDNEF
# Test Method Notes: SPR (Biacore 8K), single-cycle kinetics, hTfR1 captured through its N-terminal DYKDDDDK tag, scFv injected in 5 steps (3-fold, from 700 or 400 nM)

[
  {
    "Binder": "h26D3-LC1 (scFv) scFv: EVQLVQSGAEVKKPGSSVKVSCKASGYIFTDYNMDWVRQAPGQGLEWIGDINPDYDTTSYNEKFKGRATLTVDKSTSTAYMELSSLRSEDTAVYYCARGGYSGSSYYHPMDYWGQGTLVTVSSGGGGSGGGGSGGGGSDIQMTQSPSSVSASVGDRVTITCKSSQSLLASTNQKNYLAWYQQKPGKAPKLLIYWASTRESGVPSRFSGSGSGTDFTLTISSLQPEDFATYYCQQYFIYPRTFGQGTKVEIK",
    "binding result": "binds"
  }
]
